Examples of compounds with documented Mortality follow.
System: Mus musculus
Assay: Toxicity and mortality indicates the number of dead animals / number of animals used at dose of 500 mg/kg by administering intravenously (iv) in 3 mice.
Assay type: organism-based
Design: dose 500 mg/kg, route intravenous
Conditions: in vivo

Solved cases below.
>>> experimental_value("CN(C)C(=O)[C@H]1CCCN1C(=O)[C@@H](Cc1c[nH]cn1)NC(=O)[C@@H]1CC(=O)N(C)C(=O)N1")
0
>>> experimental_value("NC(=O)[C@@H]1CCCN1C(=O)[C@H](Cc1c[nH]cn1)NC(=O)C1CC(=O)N(CCOCc2ccccc2)C(=O)N1 (mixture of isomers)")
0
>>> experimental_value("CN1C(=O)C[C@@H](C(=O)N[C@H](Cc2c[nH]cn2)C(=O)OCc2ccccc2)NC1=O")
0
>>> experimental_value("NC(=O)[C@@H]1CCCN1C(=O)[C@H](Cc1c[nH]cn1)NC(=O)C1CC(=O)N(CCO)C(=O)N1 (mixture of isomers)")
0
>>> experimental_value("CN1C(=O)N(Cc2ccccc2)C(=O)CC1C(=O)N[C@@H](Cc1c[nH]cn1)C(=O)N1CCC[C@H]1C(N)=O (mixture of isomers)")
0

Now for the compound whose Mortality we want.
// query Supply reported Mortality belonging to this compound: `CN1C(=O)C[C@@H](C(=O)N[C@H](Cc2c[nH]cn2)C(=O)N2CCC[C@@H]2C(=O)OCc2ccccc2)NC1=O.Cl`
// result 3

###

Examples of compounds with documented Mortality follow.
System: Mus musculus
Test: Toxicity and mortality indicates the number of dead animals / number of animals used at dose of 500 mg/kg by administering intravenously (iv) in 3 mice.
Assay type: organism-based
Parameters: dose 500 mg/kg, route intravenous
Conditions: in vivo

Solved cases below.
>>> experimental_value("NC(=O)[C@@H]1CCCN1C(=O)[C@H](Cc1c[nH]cn1)NC(=O)[C@@H]1CC(=O)N(CC(=O)O)C(=O)N1")
0
>>> experimental_value("NC(=O)[C@@H]1CCCN1C(=O)[C@H](Cc1c[nH]cn1)NC(=O)C1=NC(=O)NC(=O)C1")
0
>>> experimental_value("CCCCN1C(=O)C[C@@H](C(=O)N[C@@H](Cc2c[nH]cn2)C(=O)N2CCC[C@H]2C(N)=O)NC1=O")
1

// query Supply reported Mortality belonging to this compound: `C=CCN1C(=O)C[C@@H](C(=O)N[C@@H](Cc2c[nH]cn2)C(=O)N2CCC[C@H]2C(N)=O)NC1=O`
// result 1

###

Test system: Mus musculus
Assay: Effect on pentobarbitol anesthesia (antagonist activity) in mice by intravenous (iv) administration relative to TRH
Format: functional
Examples of molecules with documented Activity follow.
Lab note: record just the number, no unit beside it.

>>> experimental_value("CCCCCN1C(=O)C[C@@H](C(=O)N[C@@H](Cc2c[nH]cn2)C(=O)N2CCC[C@H]2C(N)=O)NC1=O")
0.4

// query Supply reported Activity belonging to this molecule: `NC(=O)[C@@H]1CCCN1C(=O)[C@H](Cc1c[nH]cn1)NC(=O)[C@@H]1CC(=O)N(CCF)C(=O)N1`
// result 1.2

// query Supply reported Activity belonging to this molecule: `CN1C(=O)C[C@@H](C(=O)N[C@@H](Cc2c[nH]cn2)C(=O)N2CCC[C@H]2C(N)=O)N(C)C1=O`
// result 1.2

// query Supply reported Activity belonging to this molecule: `CNC(=O)[C@H]1CCCN1C(=O)[C@@H](Cc1c[nH]cn1)NC(=O)[C@@H]1CC(=O)N(C)C(=O)N1`
// result 0.6

All figures here come from ChEMBL document CHEMBL1125135.
